molecular target: ExoU (Pseudomonas aeruginosa); experiment: ExoU in vitro phospholipase assay (real-time, dose-response); assay type: biochemical; details: Fig 2C dose-response phospholipase assays; read-out: IC50 of bismuth-based ExoU inhibitors and subcitrate alone
MEASURED_METRIC: IC50 (µM)

[Cl][Bi]([Cl])[Cl] [Bismuth chloride, bismuth chloride] :: 9.2
O=C([O-])CC(O)(CC(=O)[O-])C(=O)[O-].O=C([O-])CC(O)(CC(=O)[O-])C(=O)[O-].[Bi+3].[K+].[K+].[K+] [Bis, bismuth subcitrate] :: 9.9

* * *

assay: in vitro; details: human, primary human corneal (limbal) epithelial cells
Where a SMILES comes first, the peptide text is derived from it.
MEASURED_METRIC: CC50 at 48 h

CC[C@H](C)CCCCC(=O)N[C@@H](CCN)C(=O)N[C@H](C(=O)N[C@@H](CCN)C(=O)N[C@H]1CCNC(=O)[C@H]([C@@H](C)O)NC(=O)[C@H](CCN)NC(=O)[C@H](CCN)NC(=O)[C@H](CC(C)C)NC(=O)[C@@H](Cc2ccccc2)NC(=O)[C@H](CCN)NC1=O)[C@@H](C)O [Pol, polymyxin B] (HELM PEPTIDE1{[CC[C@H](C)CCCCC(=O)[*:2]].[Dab].T.[Dab].[Dab].[Dab].[dF].L.[Dab].[Dab].T}$PEPTIDE1,PEPTIDE1,5:R3-11:R2$$$V2.0) :: 43 µM

* * *

# IC50 per record follows
molecular target: ExoU (Pseudomonas aeruginosa, UniProt O34208); test: ExoU in vitro phospholipase assay (real-time, dose-response); type: biochemical; conditions: Fig 3C, three-parameter fit; read-out: IC50 for ExoU inhibition, individual inhibitors or equimolar combinations
Where a SMILES comes first, the peptide text is derived from it.
MEASURED_METRIC: IC50 (µM)

O=C([O-])CC(O)(CC(=O)[O-])C(=O)[O-].O=C([O-])CC(O)(CC(=O)[O-])C(=O)[O-].[Bi+3].[K+].[K+].[K+] [Bis, bismuth subcitrate] :: 13.3
CC[C@H](C)CCCCC(=O)N[C@@H](CCN)C(=O)N[C@H](C(=O)N[C@@H](CCN)C(=O)N[C@H]1CCNC(=O)[C@H]([C@@H](C)O)NC(=O)[C@H](CCN)NC(=O)[C@H](CCN)NC(=O)[C@H](CC(C)C)NC(=O)[C@@H](Cc2ccccc2)NC(=O)[C@H](CCN)NC1=O)[C@@H](C)O [Pol, polymyxin B] (HELM PEPTIDE1{[CC[C@H](C)CCCCC(=O)[*:2]].[Dab].T.[Dab].[Dab].[Dab].[dF].L.[Dab].[Dab].T}$PEPTIDE1,PEPTIDE1,5:R3-11:R2$$$V2.0) :: 11.6

* * *

target: ExoU (Pseudomonas aeruginosa); experiment: ExoU in vitro phospholipase assay (real-time, dose-response); type: biochemical; conditions: Fig 1B dose-response; PIP2 and ubiquitin present; read-out: IC50 for ExoU inhibition in vitro
Where a SMILES comes first, the peptide text is derived from it.
# IC50 per record follows
MEASURED_METRIC: IC50

CC[C@H](C)CCCCC(=O)N[C@@H](CCN)C(=O)N[C@H](C(=O)N[C@@H](CCN)C(=O)N[C@H]1CCNC(=O)[C@H]([C@@H](C)O)NC(=O)[C@H](CCN)NC(=O)[C@H](CCN)NC(=O)[C@H](CC(C)C)NC(=O)[C@@H](Cc2ccccc2)NC(=O)[C@H](CCN)NC1=O)[C@@H](C)O [Pol, polymyxin B] (HELM PEPTIDE1{[CC[C@H](C)CCCCC(=O)[*:2]].[Dab].T.[Dab].[Dab].[Dab].[dF].L.[Dab].[Dab].T}$PEPTIDE1,PEPTIDE1,5:R3-11:R2$$$V2.0) :: 13.1 µM
CC(=O)Oc1ccc(C(=C2CCCCC2)c2ccc(OC(C)=O)cc2)cc1 :: 20.2 µM
[H]/N=C(\N/C(=N/[H])NCCCCCCNC(=N)NC(=N)Nc1ccc(Cl)cc1)Nc1ccc(Cl)cc1 :: 18.5 µM
O=C([O-])CC(O)(CC(=O)[O-])C(=O)[O-].O=C([O-])CC(O)(CC(=O)[O-])C(=O)[O-].[Bi+3].[K+].[K+].[K+] [Bis, bismuth subcitrate] :: 12.8 µM
COc1cc2c(cc1OC)[C@@H](Cc1cc(OC)c(OC)c(OC)c1)[N+](C)(CCCOC(=O)CC/C=C/CCC(=O)OCCC[N+]1(C)CCc3cc(OC)c(OC)cc3[C@H]1Cc1cc(OC)c(OC)c(OC)c1)CC2 (some centres unmarked) [mivacurium chloride] :: 6 µM
